Kindly supply the reported change in vivo at 30 mg/kg values for the records listed here.
System: spontaneously hypertensive rat (SHR)
experiment summary: blood pressure lowering in conscious spontaneously hypertensive rats (SHR), AHP3
Format: in vivo
condition context: 30 mg/kg PO, read-out: Max % decrease in blood pressure, 30 mg/kg PO in SHR
Where a name gives a salt, the structure may show the parent alone.
Give bare numbers, in %.

Solved cases below.
molecule	unit name	change in vivo at 30 mg/kg
COc1ccc(N2C(=O)C3Cc4[nH]cnc4CN3C2=O)cc1 (centres unmarked)	%	-39
CC(C)N1C(=O)C2Cc3c(ncn3Cc3ccccc3)CN2C1=O (centres unmarked) [Example 130, hydrobromide]	%	-21
COc1ccc(N2C(=O)C3Cc4c(ncn4Cc4ccc([N+](=O)[O-])c(C)c4)CN3C2=O)cc1 (centres unmarked) [Example 273, monohydrochloride]	%	-14

Report change in vivo at 30 mg/kg for every entry below.
1. COc1ccc(N2C(=O)C3Cc4[nH]cnc4CN3C2=S)cc1 (centres unmarked)
2. CN(C)c1ccc(N2C(=O)C3Cc4[nH]cnc4CN3C2=S)cc1 (centres unmarked)
3. CC(C)N1C(=O)C2Cc3nc[nH]c3CN2C1=O (centres unmarked)

Reply:
1: -39; 2: -34; 3: -39

###

Kindly supply the reported log10 IC50 values for the records listed here.
tested system: angiotensin II binding to rat adrenal receptor preparations
experiment summary: inhibition of 125I-angiotensin II binding to rat adrenal receptor preparations
Lab note - IC50 converted to log10 from values in µM.

molecule	recorded measurement
O=C(O)C1Cc2c(ncn2Cc2ccccc2)CN1C(=O)C(c1ccccc1)c1ccccc1 (stereo not shown)	0.00
Cc1cccc(Cn2cnc3c2C[C@@H](C(=O)O)N(C(=O)C(c2ccccc2)c2ccccc2)C3)c1	-0.57
COc1ccc(Cn2cnc3c2CC(C(=O)O)N(C(=O)C(c2ccccc2)c2ccccc2)C3)cc1C (stereo not shown)	-1.15
O=C(O)C1Cc2c(ncn2Cc2ccccc2)CN1C(=O)C1c2ccccc2-c2ccccc21 (single isomer, unassigned)	0.90
O=C(O)C1Cc2c(ncn2Cc2ccc(C(F)(F)F)cc2)CN1C(=O)C(c1ccccc1)c1ccccc1 (stereo not shown)	-0.72
O=C(O)C1Cc2c(ncn2Cc2ccccc2O)CN1C(=O)C(c1ccccc1)c1ccccc1 (stereo not shown)	-0.16
O=C(O)[C@@H]1Cc2c(ncn2Cc2ccccc2)CN1C(=O)C(c1ccc(Cl)cc1)c1ccc(Cl)cc1	0.83
COc1ccc(Cn2cnc3c2C[C@@H](C(=O)O)N(C(=O)CC2CCCCC2)C3)cc1C	0.30

Report log10 IC50 for every entry below.
1. O=C(O)[C@@H]1Cc2c(ncn2Cc2ccccc2)CN1C(=O)C(c1ccc(F)cc1)c1ccc(F)cc1
2. O=C(O)C1Cc2c(ncn2CCC2CCCCC2)CN1C(=O)C(c1ccccc1)c1ccccc1 (stereo not shown)
3. COc1ccc(Cn2cnc3c2C[C@@H](C(=O)O)N(C(=O)C(c2ccccc2)C2CCCC2)C3)cc1C (stereo partly shown)
4. O=C(O)C1Cc2c(ncn2CCc2ccccc2)CN1C(=O)Cc1ccccc1 (stereo not shown)

Reply:
[0.32, -0.62, -1.15, 0.38]

Query: Can you share its log10 IC50? I mean this molecule: O=C(O)C1Cc2c(ncn2CCC23CC4CC(CC(C4)C2)C3)CN1C(=O)C(c1ccccc1)c1ccccc1 (stereo not shown)
Reply: -1.00

###

Tested on: spontaneously hypertensive rat (SHR)
experiment summary: blood pressure lowering in conscious spontaneously hypertensive rats (SHR), AHP3
Assay type: in vivo
condition context: 30 mg/kg PO, read-out: Max % decrease in blood pressure, 30 mg/kg PO in SHR
Structures can show the parent of a compound that is named as a salt.
Kindly supply the reported change in vivo at 30 mg/kg values for the records listed here.
Answers are plain numbers, in %.

Solved cases below.
molecule	measure	unit name	recorded measurement
COc1ccc(N2C(=O)C3Cc4c(ncn4Cc4ccc(OC)c(C)c4)CN3C2=S)cc1 (centres unmarked)	change in vivo at 30 mg/kg	%	-24
CC(C)(C)N1C(=O)C2Cc3[nH]cnc3CN2C1=O (centres unmarked)	change in vivo at 30 mg/kg	%	-18
COc1ccc(N2C(=O)C3Cc4c(ncn4Cc4ccccc4)CN3C2=O)cc1 (centres unmarked) [Example 133, monohydrochloride]	change in vivo at 30 mg/kg	%	-29
COc1ccc(N2C(=O)C3Cc4c(ncn4Cc4ccccc4)CN3C2=S)cc1 (centres unmarked)	change in vivo at 30 mg/kg	%	-32
CC(C)N1C(=O)C2Cc3[nH]cnc3CN2C1=S (centres unmarked)	change in vivo at 30 mg/kg	%	-39

Report change in vivo at 30 mg/kg for every entry below.
1. COc1ccc(N2C(=O)C3Cc4[nH]cnc4CN3C2=O)c(OC)c1 (centres unmarked)
2. O=C1C2Cc3[nH]cnc3CN2C(=S)N1c1ccccc1 (centres unmarked)
3. CC(C)N1C(=O)[C@@H]2Cc3ncn(C)c3CN2C1=O

Reply:
-22
-28
-36
